test: self-splicing fitness, log relative to wild type (ln ratio); higher = more splicing; Tetrahymena group I intron in knt gene, E. coli kanamycin selection, DiMSum; sequences stand for … in CUCUCU…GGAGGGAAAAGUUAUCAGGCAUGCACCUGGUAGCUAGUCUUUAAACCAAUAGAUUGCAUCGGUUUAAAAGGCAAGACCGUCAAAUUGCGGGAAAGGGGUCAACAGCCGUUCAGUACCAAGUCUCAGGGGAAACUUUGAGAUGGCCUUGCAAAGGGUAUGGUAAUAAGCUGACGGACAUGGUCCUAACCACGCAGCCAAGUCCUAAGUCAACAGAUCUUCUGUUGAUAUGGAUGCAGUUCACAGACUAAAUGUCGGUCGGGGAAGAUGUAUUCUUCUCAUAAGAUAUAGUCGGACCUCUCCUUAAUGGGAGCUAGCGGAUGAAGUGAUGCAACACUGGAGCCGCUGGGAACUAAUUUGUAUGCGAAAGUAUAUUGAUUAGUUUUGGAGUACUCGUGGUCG; settings: 30 °C;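 also: selection with 25 µg/mL kanamycin versus none on LB agar overnight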
metric-name: self-splicing fitness (ln)

ordered_residues=GGGAAGCAAUAUUACGCGGG measured_result=-1.49
ordered_residues=UCAAAGCAAUAUUACGAGCC measured_result=-2.27
ordered_residues=GAAUAGCAAUAUUACGGAUA measured_result=-2.36
ordered_residues=UGCGAGCAAUAUUACGACAA measured_result=-1.55
ordered_residues=CCAGAGCAAUAUUACGGUGC measured_result=-2.81
ordered_residues=GGACAGCAAUAUUACGUCUA measured_result=-0.35
ordered_residues=AGUCAGCAAUAUUACGCGAC measured_result=-2.59
ordered_residues=CAGUAGCAAUAUUACGAUUA measured_result=-2.16
ordered_residues=GGGCAGCAAUAUUACGUUGA measured_result=-1.3
ordered_residues=CAUGAGCAAUAUUACGUAAG measured_result=-0.906
ordered_residues=UUCCAGCAAUAUUACGACAG measured_result=-1.39
ordered_residues=CUUUAGCAAUAUUACGCGGU measured_result=-2.14
ordered_residues=AACAAGCAAUAUUACGUAGA measured_result=-2.88
ordered_residues=CUAGAGCAAUAUUACGACGA measured_result=-3.35
ordered_residues=CUACAGCAAUAUUACGCGGU measured_result=-3.49
